test.system: Inositol polyphosphate-5-phosphatase A (Homo sapiens, UniProt Q14642)
Sequence (Q14642 whole entry): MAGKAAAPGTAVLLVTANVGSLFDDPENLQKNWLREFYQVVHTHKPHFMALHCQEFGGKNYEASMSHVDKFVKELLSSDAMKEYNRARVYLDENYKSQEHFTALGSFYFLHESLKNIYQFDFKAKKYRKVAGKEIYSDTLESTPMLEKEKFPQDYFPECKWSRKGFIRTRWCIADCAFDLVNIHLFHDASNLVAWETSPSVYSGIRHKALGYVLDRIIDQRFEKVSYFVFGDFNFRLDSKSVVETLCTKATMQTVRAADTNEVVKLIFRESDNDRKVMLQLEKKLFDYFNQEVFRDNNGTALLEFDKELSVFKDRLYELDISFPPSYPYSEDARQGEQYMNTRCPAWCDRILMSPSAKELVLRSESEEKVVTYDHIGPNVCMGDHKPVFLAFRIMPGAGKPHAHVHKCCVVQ
quantity.name: Ki (nM)

1. O=P(O)(O)OC1C(O)C(O)C(OP(O)(O)=S)C(OP(O)(O)=S)C1O (stereo unspecified) :: 1300
